All values here come from the supplement of paper PMC6555819.

# Test system: PPARg:RXRa (NR concentration 180 nM, RXRa partner concentration 90 nM)
# protocol: PBM binding z-score (relative to random genomic background probes); higher = stronger binding; sequences stand for … in GC…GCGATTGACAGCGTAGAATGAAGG
Quick reference: PBM binding z-score of the listed items.
The answer should be written as a number, with no unit following it.

AGAACGTGGGCAATGAGTTGATAGCACGGGTGGC :: 0.723
CGAAATAGGTCATTGACAGGACAGTGAATAGTAA :: 6.83
GACACAGGGTCAAGGCCAGAGTACGCGTATTGAT :: 5.53
TCTAGTTGGTCAAGGAGGTCACACACGACGGGTA :: 2.59

What measured PBM binding z-score goes with ACAGACAGGTGAGTGAAGGAAACTCAGCTGGACG ?
0.519

Record: ACTATTCGTTGACTTAGGGCAACCGATACGACGC
0.87

Record: CCGAGTGGGGCAAAGGTTACCATACTCAGTACGA
11
